reported property: IC50

Hi! What's the reported IC50 for CCC1(c2cccc(N3CCc4ccncc4C3)c2)C2=CN=NC2NC2=C1C(=O)CC(C)(C)C2 (stereo unspecified) on Glycogen synthase kinase-3 alpha (Homo sapiens, UniProt P49840)?
1000 to 5000 nM

Hi! What's the reported IC50 for CC1(C)CC(=O)C2=C(C1)NC1=C(CN=N1)C21CN(CC(F)(F)F)C1 on Glycogen synthase kinase-3 alpha (Homo sapiens, UniProt P49840)?
< 100 nM

Hi! What's the reported IC50 for CC1(C)CC(=O)C2=C(C1)NC1=C(CN=N1)C21COC2(CN(C(=O)C3CCCC3)C2)C1 (stereo unspecified) on Glycogen synthase kinase-3 alpha (Homo sapiens, UniProt P49840)?
< 100 nM

Hi! What's the reported IC50 for CC1(C)CC(=O)C2=C(C1)NC1=C(CN=N1)C21CCN(S(=O)(=O)c2ccc(C(F)(F)F)cc2)CC1 on Glycogen synthase kinase-3 alpha (Homo sapiens, UniProt P49840)?
< 100 nM

Hi! What's the reported IC50 for Cc1ccc(C)c(C(=O)N2CC3(C2)CC2(CO3)C3=C(N=NC3)NC3=C2C(=O)CC(C)(C)C3)c1 (stereo unspecified) on Glycogen synthase kinase-3 alpha (Homo sapiens, UniProt P49840)?
< 100 nM

Hi! What's the reported IC50 for CCC1(c2cccc(-c3cnn(C)c3)c2)C2=C(CC(C)(C)NC2=O)NC2N=NC(C)=C21 (stereo unspecified) on Glycogen synthase kinase-3 alpha (Homo sapiens, UniProt P49840)?
< 100 nM

* * *

pIC50: −log10 of the molar value.
pIC50, Glycogen synthase kinase-3 beta (Homo sapiens), per-entry values.

Name the recorded pIC50 for CO[C@H]1CC[C@]2(CC1)C1=C(N=NC1)NC1=C2C(=O)CC(C)(C)C1 [US20250313563, Compound 884120] .
6.00 to 7.00

Name the recorded pIC50 for CC1(C)CC(=O)C2=C(C1)NC1=C(CN=N1)C21CCN(S(=O)(=O)c2cnn3c2OCCC3)CC1 [US20250313563, Compound 947483] .
> 7.00

Name the recorded pIC50 for CC[C@@]1(c2cccc(C(F)(F)F)c2)C2=C(N=NC2)NC2=C1C(=O)NC2(C)C [US20250313563, Compound 913452] .
< 5.30

Name the recorded pIC50 for CC1(C)CC(=O)C2=C(NC3N=NC=C3C23CCOCC3)[C@H]1F (some centres undefined) [US20250313563, Compound 883833] .
5.30 to 6.00

Name the recorded pIC50 for O=C1C[C@H](C(F)(F)F)CC2=C1C1(CCOCC1)C1=C(N=NC1)N2 [US20250313563, Compound 901477] .
5.30 to 6.00

Name the recorded pIC50 for CC(=O)N1CCCC2(CC1)C1=CN=NC1NC1=C2C(=O)CC(C)(C)C1 (centres undefined) [US20250313563, Compound 889575] .
5.30 to 6.00

Name the recorded pIC50 for CC[C@@]1(c2cccc(N(C)c3ccc(C(F)(F)F)nc3)c2)C2=CN=NC2NC2=C1C(=O)CC(C)(C)C2 (some centres undefined) [US20250313563, Compound 945474] .
6.00 to 7.00

Name the recorded pIC50 for CC1(C)CC(=O)C2=C(C1)NC1=C(CN=N1)C2(C)c1cccc(Br)c1 (centres undefined) [US20250313563, Compound 789277] .
6.00 to 7.00

Name the recorded pIC50 for CCC1(c2cccc(N3CC4CCC3C4)c2)C2=CN=NC2NC2=C1C(=O)CC(C)(C)C2 (centres undefined) [US20250313563, Compound 885110] .
6.00 to 7.00

Name the recorded pIC50 for CC[C@]1(c2cccc(-c3cc(C)nn3C)c2)C2=CN=NC2NC2=C1C(=O)CC(C)(C)[C@@H]2F (some centres undefined) [US20250313563, Compound 947655] .
6.00 to 7.00

Name the recorded pIC50 for CC1(C)CC(=O)C2=C(C1)NC1N=NC(Br)=C1[C@@]21CCc2c(F)cccc21 (some centres undefined) [US20250313563, Compound 806938] .
5.30 to 6.00

Name the recorded pIC50 for CCC1(c2cccc(-c3cc(C)nc(OC(F)F)c3)c2)C2=CN=NC2NC2=C1C(=O)CC(C)(C)C2 (centres undefined) [US20250313563, Compound 945463] .
5.30 to 6.00

Name the recorded pIC50 for CC[C@]1(c2cccc(-c3cnn4c3CCCC4)c2)C2=C(CC(C)(C)NC2=O)NC2N=NC(C(F)(F)F)=C21 (some centres undefined) [US20250313563, Compound 948772] .
6.00 to 7.00

Name the recorded pIC50 for CCC1(c2cccc(OCCOC)c2)C2=CN=NC2NC2=C1C(=O)CC(C)(C)C2 (centres undefined) [US20250313563, Compound 801446] .
< 5.78

* * *

What IC50 was measured for each of the following?

Hi! What's the reported IC50 for CC[C@]1(c2cccc(Br)c2)C2=CN=NC2NC2=C1C(=O)C[C@H](C(F)(F)F)C2 (stereo partly drawn) on Glycogen synthase kinase-3 alpha (Homo sapiens)?
> 5000 nM

Hi! What's the reported IC50 for CC1(C)CC(=O)C2=C(C1)NC1=C(CN=N1)[C@]21CCO[C@H](C(F)(F)F)C1 on Glycogen synthase kinase-3 alpha (Homo sapiens)?
1000 to 5000 nM

Hi! What's the reported IC50 for CCC1(c2cccc(N(C)c3ncccn3)c2)C2=C(CC(C)(C)NC2=O)NC2N=NC(C(F)F)=C21 (stereo not drawn) on Glycogen synthase kinase-3 alpha (Homo sapiens)?
< 100 nM

Hi! What's the reported IC50 for CC1(C)CC(=O)C2=C(C1)NC1=C(CN=N1)C21CCN(S(=O)(=O)Cc2ccccc2)CC1 on Glycogen synthase kinase-3 alpha (Homo sapiens)?
< 100 nM

Hi! What's the reported IC50 for CCC1(c2cccc(-c3cc(OC)ncc3F)c2)C2=CN=NC2NC2=C1C(=O)CC(C)(C)C2 (stereo not drawn) on Glycogen synthase kinase-3 alpha (Homo sapiens)?
< 100 nM

Hi! What's the reported IC50 for CCC1(c2cccc(C(F)(F)F)c2)C2=C(CC(C)(C)CC2=O)NC2N=NC(Br)=C21 (stereo not drawn) on Glycogen synthase kinase-3 alpha (Homo sapiens)?
< 100 nM

Hi! What's the reported IC50 for CC[C@]1(c2cccc(N(C)C(=O)c3ccn(C)n3)c2)C2=CN=NC2NC2=C1C(=O)CC(C)(C)C2 (stereo partly drawn) on Glycogen synthase kinase-3 alpha (Homo sapiens)?
> 5000 nM

Hi! What's the reported IC50 for O=C1CC2(CCOC2)CC2=C1C1(CCOCC1)C1=C(N=NC1)N2 (stereo not drawn) on Glycogen synthase kinase-3 alpha (Homo sapiens)?
< 100 nM

Hi! What's the reported IC50 for CC1(C)CC(=O)C2=C(C1)NC1=C(CN=N1)C21CCC(C(=O)N2CCCC2)CC1 (stereo not drawn) [US20250313563, Compound 945396] on Glycogen synthase kinase-3 alpha (Homo sapiens)?
100 to 1000 nM

Hi! What's the reported IC50 for CC[C@@]1(c2cccc(-c3c(F)cncc3OC)c2)C2=CN=NC2NC2=C1C(=O)CC(C)(C)[C@H]2F (stereo partly drawn) on Glycogen synthase kinase-3 alpha (Homo sapiens)?
100 to 1000 nM

Hi! What's the reported IC50 for CC[C@]1(c2cccc(-c3ccnc(C)c3C)c2)C2=C(CC(C)(C)CC2=O)NC2N=NC(C(F)(F)F)=C21 (stereo partly drawn) on Glycogen synthase kinase-3 alpha (Homo sapiens)?
100 to 1000 nM

Hi! What's the reported IC50 for CC[C@@]1(c2cccc(-c3ccncc3C)c2)C2=CN=NC2NC2=C1C(=O)N[C@@]1(CCCOC1)C2 (stereo partly drawn) on Glycogen synthase kinase-3 alpha (Homo sapiens)?
100 to 1000 nM

Hi! What's the reported IC50 for CCC1(c2cccc(N(C)c3cccc(C)n3)c2)C2=CN=NC2NC2=C1C(=O)CC(C)(C)C2 (stereo not drawn) on Glycogen synthase kinase-3 alpha (Homo sapiens)?
< 100 nM

* * *

What IC50 was measured for each of the following?
# system name: Glycogen synthase kinase-3 alpha (Homo sapiens, UniProt P49840)
# Sequence (P49840 whole entry): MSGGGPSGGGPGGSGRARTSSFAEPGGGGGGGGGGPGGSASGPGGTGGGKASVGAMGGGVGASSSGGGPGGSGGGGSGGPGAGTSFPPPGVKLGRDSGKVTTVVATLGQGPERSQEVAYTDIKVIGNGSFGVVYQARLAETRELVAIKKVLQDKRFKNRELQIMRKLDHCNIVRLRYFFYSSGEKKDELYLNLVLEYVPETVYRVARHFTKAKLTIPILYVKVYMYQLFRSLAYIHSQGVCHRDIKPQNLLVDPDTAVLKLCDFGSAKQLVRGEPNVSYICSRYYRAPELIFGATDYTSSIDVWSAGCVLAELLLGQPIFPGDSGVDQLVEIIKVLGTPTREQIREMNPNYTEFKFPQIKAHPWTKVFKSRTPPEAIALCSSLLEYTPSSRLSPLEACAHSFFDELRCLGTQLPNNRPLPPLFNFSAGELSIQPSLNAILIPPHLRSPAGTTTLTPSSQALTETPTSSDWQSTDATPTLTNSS
# protocol description: TR-FRET Assay

Name the recorded IC50 for CC[C@]1(c2ccccc2)C2=CN=NC2NC2=C1C(=O)[C@@H](C)C[C@@H]2C (stereo partly drawn) .
> 5000 nM

Name the recorded IC50 for CC[C@]1(c2cccc(-c3ccncc3Cl)c2)C2=CN=NC2NC2=C1C(=O)NC(C)(C)C2 (stereo partly drawn) .
100 to 1000 nM

Name the recorded IC50 for CC[C@@]1(c2cccc(N3C[C@@H](C)[C@H](C)C3)c2)C2=CN=NC2NC2=C1C(=O)CC(C)(C)C2 (stereo partly drawn) .
1000 to 5000 nM
